Entry source: the SangsterLogP compilation

For each of the compounds below, state its logP.

Which logP is listed for CCC(=O)O[C@]1(C(=O)CBr)[C@@H](C)C[C@H]2[C@@H]3CCC4=CC(=O)C=C[C@]4(C)[C@@]3(F)C(=O)C[C@@]21C ?
3.55

For CCC(=O)O[C@]1(C(=O)CCl)[C@@H](C)C[C@H]2[C@@H]3CCC4=CC(=O)C=C[C@]4(C)[C@H]3C(=O)C[C@@]21C , what is its reported logP?
3.3

Param item = CCC(=O)O[C@]1(C(=O)CCl)[C@@H](C)C[C@H]2[C@@H]3CCC4=CC(=O)C=C[C@]4(C)[C@@]3(Cl)[C@@H](O)C[C@@]21C ; retrieve measured logP.
3.28
